target: hemagglutinin (HA) of influenza A/Japan/305/57 H2N2 (Influenza A virus A/Japan/305/1957 …, UniProt P03451 16-562); assay: ELISA, inactivated whole virions coated; transfection supernatant set 5
We begin with a simple list: items and their reported OD450.

| binder | OD450, OD450 |
| --- | --- |
| TCN-556 (5089_K12) (antibody, V domains shown) VH: QVQLVQSGAEVKKPGASVKVSCKASGYTFIGYDMHWVRQAPGQGLEWMGWINAKRGGTNYAQKFQGRVTMTRDTSISTAYMELNSLRSDDTAVYYCARGVGSRTTIFGVLNPEFDYWGQGTLVTVSS VL: QSALTQPPSASGSPGQSVTISCTGSSSDVGGYDYVSWYQQHPGKAPKLLIYEVTKRPSGVPDRFSGSKSGNTASLTVSGLQAEDEADYYCSSYAGNYNHVFGPGTKVTVL | 3.64 |
| TCN-543 (5081_G23) (antibody, V domains shown) VH: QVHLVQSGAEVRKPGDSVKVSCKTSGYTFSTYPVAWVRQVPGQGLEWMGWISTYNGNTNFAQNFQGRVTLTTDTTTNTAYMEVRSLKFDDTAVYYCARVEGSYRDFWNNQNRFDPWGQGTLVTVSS VL: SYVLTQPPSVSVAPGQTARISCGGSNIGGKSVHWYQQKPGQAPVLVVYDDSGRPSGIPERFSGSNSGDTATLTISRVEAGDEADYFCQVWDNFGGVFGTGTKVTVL | 3.64 |
| TCN-523 (5248_A17) (antibody, V domains shown) VH: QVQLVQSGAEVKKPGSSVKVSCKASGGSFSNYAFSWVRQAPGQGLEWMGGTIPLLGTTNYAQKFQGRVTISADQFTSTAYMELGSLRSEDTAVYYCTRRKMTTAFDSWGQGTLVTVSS VL: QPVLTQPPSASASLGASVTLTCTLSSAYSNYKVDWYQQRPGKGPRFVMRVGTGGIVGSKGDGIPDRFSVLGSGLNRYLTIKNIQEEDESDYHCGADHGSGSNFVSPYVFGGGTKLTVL | 2.56 |
| TCN-544 (5082_A19) (antibody, V domains shown) VH: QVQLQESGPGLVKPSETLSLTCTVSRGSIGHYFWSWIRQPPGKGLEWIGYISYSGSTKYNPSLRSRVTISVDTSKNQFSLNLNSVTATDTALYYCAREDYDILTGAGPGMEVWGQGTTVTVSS VL: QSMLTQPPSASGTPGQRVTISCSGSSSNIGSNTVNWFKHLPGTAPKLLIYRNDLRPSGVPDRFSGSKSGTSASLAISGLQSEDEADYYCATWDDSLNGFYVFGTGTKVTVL | 0.07 |
| TCN-558 (5248_H10b) (antibody, V domains shown) VH: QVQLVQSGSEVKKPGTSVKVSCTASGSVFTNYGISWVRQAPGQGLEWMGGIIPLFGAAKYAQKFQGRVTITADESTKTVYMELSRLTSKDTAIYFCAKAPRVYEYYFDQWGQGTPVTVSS VL: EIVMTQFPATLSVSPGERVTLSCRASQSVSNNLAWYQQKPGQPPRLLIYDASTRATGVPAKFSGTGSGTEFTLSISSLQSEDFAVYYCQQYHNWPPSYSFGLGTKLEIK | 3.31 |
